Reference for the values: PubChem BioAssay (Tox21)

# Procedure Summary: qHTS assay to test for compound auto fluorescence at 590 nm (red) in HepG2 cell free culture (AID 720684); note: % is set by controls: 0 for no effect and ±100 for the full control effect
# Stated Conditions: cell-free medium autofluorescence, red 540/590 nm; series mostly up to 91.3 µM
Active and inactive are the calls of the source. Calls come from the whole dose curve; as a rule, active = well fitted curve in the direction sought with a large enough effect in the repeat runs; inconclusive = weak or mixed curves; inactive = flat fitted curve, though single readings scatter.

| Compound | fluorescence, % of Rose Bengal |
| --- | --- |
| CC(Cl)C(Cl)Cl (configuration not stated) | inactive |
| CC(=O)Nc1ccccc1C | inactive |
| COc1cc2[nH]c(=O)[nH]c(=O)c2cc1OC | 0.0628% [at 18.6 µM] (inactive) |
| CC(C)(C)C(=O)O | inactive |
| Cc1cc(S(=O)(=O)O)ccc1N=Nc1c(O)ccc2ccccc12 | inactive |
| COc1ccc(CCC(=O)c2c(O)cc(O[C@@H]3O[C@H](CO)[C@@H](O)[C@H](O)[C@H]3O[C@@H]3O[C@@H](C)[C@H](O)[C@@H](O)[C@H]3O)cc2O)cc1O | inactive |
| Cc1cc(O)c(C(C)C)cc1Cl | inactive |
| C=CCOC(=O)/C=C\C(=O)OCC=C | inactive |
| CCCCC1C(=O)N(c2ccccc2)N(c2ccc(O)cc2)C1=O (configuration not stated) | -0.239% [at 18.6 µM] (inactive) |
| C1COCO1 | inactive |
| CC1CN(c2cc3c(cc2F)c(=O)c(C(=O)O)cn3-c2ccc(F)cc2F)CCN1 (configuration not stated) | inactive |
| CC1=CC(=O)CC(C)(C)C1(O)/C=C/C(C)=C\C(=O)O (configuration not stated) | inactive |
